Values compiled from patent US11840686B2.

# Tested on: human PKK mRNA
# EXPERIMENT NOTES: Dose-dependent antisense inhibition of human PKK in HepaRG cells, 0.11-3.00 uM (Example 6)
# Assay type: cell-based
# CONDITION PARAMETERS: electroporation, 3.00 μM, approx. 16 hours, relative to untreated control cells
Strand notation (5' to 3'): a small letter for the sugar, then the base; units joined by * are phosphorothioate-linked, units joined directly phosphodiester-linked; [ ] holds rarer units or linkages, { } end groups; capitals alone tell only the bases. e = 2'-O-(2-methoxyethyl) (MOE); k = constrained ethyl (cEt); [5mC] = 5-methylcytosine; d = 2'-deoxy (DNA)
Outcome: 1 for percent inhibition of PKK mRNA, 3.00 μM of at least 90%; 0 for anything lower.

1) 548170 (eA*eG*kT*dT*dG*d[5mC]*dG*dA*d[5mC]*d[5mC]*dT*d[5mC]*dG*k[5mC]*kA*eT; antisense) [compound 548170] :: 0
2) 548128 (eA*eT*kT*dG*d[5mC]*d[5mC]*dT*dA*dG*dA*d[5mC]*dT*d[5mC]*kT*kG*eG; antisense) [compound 548128] :: 0
3) 548338 (antisense eA*eT*kG*dA*dA*dA*d[5mC]*dT*dG*dT*dG*dG*d[5mC]*kT*k[5mC]*eG) [compound 548338] :: 1
4) 548521 (antisense e[5mC]*eA*kG*d[5mC]*dT*d[5mC]*d[5mC]*d[5mC]*dT*dT*dA*d[5mC]*dT*kA*kG*eG) [compound 548521] :: 0

---

Recorded percent inhibition of PKK mRNA, 0.11 μM by entry
# Test system: human PKK mRNA
# EXPERIMENT NOTES: Dose-dependent antisense inhibition of human PKK in HepaRG cells, 0.11-3.00 uM (Example 6)
# Format: cell-based
# CONDITION PARAMETERS: electroporation, 0.11 μM, approx. 16 hours, relative to untreated control cells
Strand notation (5' to 3'): a small letter for the sugar, then the base; units joined by * are phosphorothioate-linked, units joined directly phosphodiester-linked; [ ] holds rarer units or linkages, { } end groups; capitals alone tell only the bases. e = 2'-O-(2-methoxyethyl) (MOE); k = constrained ethyl (cEt); [5mC] = 5-methylcytosine; d = 2'-deoxy (DNA)
READOUT: percent inhibition of PKK mRNA, 0.11 μM (%)

1) 548409 (antisense eG*eT*kA*dT*d[5mC]*dA*d[5mC]*dT*dG*dT*dA*d[5mC]*dT*kA*kG*eT) [compound 548409] :: 21
2) 548479 (eA*eG*kG*d[5mC]*d[5mC]*dA*dT*dT*dT*dG*dA*dT*d[5mC]*k[5mC]*kG*eA; antisense) [compound 548479] :: 2
3) 548197 (eT*eG*k[5mC]*dT*dT*dG*dG*d[5mC]*dT*dT*d[5mC]*dA*dA*kT*kA*eT; antisense) [compound 548197] :: 33
4) 547808 (e[5mC]*eA*kT*d[5mC]*dT*dG*dG*d[5mC]*dA*dG*dT*dA*dT*kT*kG*eG; antisense) [compound 547808] :: 19
5) 548557 (antisense eG*eT*kT*dA*d[5mC]*dT*d[5mC]*dT*dG*dT*dG*dA*dT*k[5mC]*k[5mC]*eA) [compound 548557] :: 5
6) 548655 (antisense e[5mC]*e[5mC]*k[5mC]*dG*dA*dG*dG*dT*d[5mC]*dA*d[5mC]*dA*dT*kA*kA*eT) [compound 548655] :: 0
7) 548155 (e[5mC]*eG*kT*dG*d[5mC]*dT*dG*dA*dA*dA*dG*d[5mC]*dG*kG*kG*e[5mC]; antisense) [compound 548155] :: 49
8) 548486 (e[5mC]*eG*kT*dG*dG*dT*dT*dA*dG*d[5mC]*d[5mC]*dT*dG*kA*k[5mC]*eA; antisense) [compound 548486] :: 20
9) 547942 (eG*eG*kT*dG*dT*dG*d[5mC]*d[5mC]*dA*d[5mC]*dT*dT*dT*k[5mC]*kA*eG; antisense) [compound 547942] :: 25
10) 548125 (antisense e[5mC]*eT*kA*dG*dA*d[5mC]*dT*d[5mC]*dT*dG*dG*dA*d[5mC]*kT*kG*e[5mC]) [compound 548125] :: 33
11) 548010 (eA*eG*kT*dG*dT*dT*dA*d[5mC]*dA*d[5mC]*dA*dA*dT*k[5mC]*kT*e[5mC]; antisense) [compound 548010] :: 0
12) 548410 (antisense eA*eG*kT*dA*dT*d[5mC]*dA*d[5mC]*dT*dG*dT*dA*d[5mC]*kT*kA*eG) [compound 548410] :: 31
13) 547769 (antisense eT*eT*kG*dG*dA*dG*dG*dT*dG*dA*dG*dT*d[5mC]*kT*k[5mC]*eT) [compound 547769] :: 12
14) 548047 (eG*eA*kT*dA*dT*d[5mC]*dA*dT*dG*dA*dT*dT*d[5mC]*k[5mC]*k[5mC]*eT; antisense) [compound 548047] :: 50
15) 548170 (eA*eG*kT*dT*dG*d[5mC]*dG*dA*d[5mC]*d[5mC]*dT*d[5mC]*dG*k[5mC]*kA*eT; antisense) [compound 548170] :: 0
16) 547979 (antisense eG*eT*k[5mC]*dT*d[5mC]*dT*dT*dG*dG*d[5mC]*dA*dA*dA*k[5mC]*kA*eT) [compound 547979] :: 56
17) 548217 (e[5mC]*eT*kG*dT*dG*d[5mC]*dA*dT*dA*dG*dA*d[5mC]*d[5mC]*k[5mC]*k[5mC]*eA; antisense) [compound 548217] :: 22
18) 547948 (eA*eG*kG*dA*dA*d[5mC]*dT*dT*dG*dG*dT*dG*dT*kG*k[5mC]*e[5mC]; antisense) [compound 547948] :: 60
19) 547922 (eT*eG*kG*dA*dG*dT*dG*dA*dG*dA*dA*d[5mC]*d[5mC]*k[5mC]*kT*eG; antisense) [compound 547922] :: 67
20) 547851 (antisense eT*eA*kA*dA*dT*dG*dT*d[5mC]*dT*d[5mC]*dG*dA*dT*kG*kG*e[5mC]) [compound 547851] :: 16
21) 548043 (eA*eT*kT*dT*dG*dT*dG*dA*dG*dA*dA*dA*dG*kG*kT*eG; antisense) [compound 548043] :: 14
22) 548422 (antisense eG*eT*kA*dT*d[5mC]*dA*d[5mC]*dT*dG*dT*d[5mC]*d[5mC]*dT*kA*kT*eA) [compound 548422] :: 0
23) 548024 (eG*e[5mC]*kT*dG*dT*d[5mC]*dA*dG*d[5mC]*dT*dT*d[5mC]*dA*k[5mC]*k[5mC]*eT; antisense) [compound 548024] :: 28
24) 548583 (eG*eG*kG*dA*dA*dT*dT*dT*dA*dT*dG*d[5mC]*dT*kG*k[5mC]*e[5mC]; antisense) [compound 548583] :: 43
25) 547843 (antisense e[5mC]*eA*k[5mC]*dT*dT*dA*dT*dT*dT*dG*dA*dT*dG*kA*k[5mC]*e[5mC]) [compound 547843] :: 0
